- assayed system: μ-opioid receptor (Rattus norvegicus)
- Sequence (P33535 whole entry): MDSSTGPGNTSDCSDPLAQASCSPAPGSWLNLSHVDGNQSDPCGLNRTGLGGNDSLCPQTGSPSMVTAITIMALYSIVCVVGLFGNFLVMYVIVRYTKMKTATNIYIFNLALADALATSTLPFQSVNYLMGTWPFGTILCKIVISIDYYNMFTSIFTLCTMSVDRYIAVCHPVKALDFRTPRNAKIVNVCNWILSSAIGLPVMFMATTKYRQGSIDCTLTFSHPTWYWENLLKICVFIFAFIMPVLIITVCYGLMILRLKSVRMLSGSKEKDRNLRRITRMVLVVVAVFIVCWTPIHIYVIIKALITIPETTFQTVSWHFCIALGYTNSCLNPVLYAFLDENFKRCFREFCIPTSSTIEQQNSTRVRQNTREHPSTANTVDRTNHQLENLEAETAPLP
- assay protocol: Rat brain μ-opioid receptor binding assay ([3H]DAMGO)
- recorded conditions: rat forebrain preparation; [3H]DAMGO; 25° C.; read-out: μ-Opioid Receptor Binding (Ki nM)
Could you please report measured Ki for the items listed next?
Answer with a number only, understood to be in nM.

Input COCCN1CCN(C(=Nc2ccccc2C(F)(F)F)c2ccc(C(=O)OC)cc2)CC1 [Compound 44] . Output Ki: 9150

For reference, reported Ki for CCCN(CCC)C(=O)c1ccc(C(=Nc2ccccc2Cl)N2CCN(CC)CC2)cc1 [Compound 7] stands at 3930

Recorded result, COC(=O)c1ccc(C(=Nc2ccccc2)N2CCCN(CCc3ccccc3)CC2)cc1 [Compound 58] , Ki: 232
